# Test system: Rhizoctonia solani
# assay_protocol: Antifungal activity against Rhizoctonia solani assessed as inhibition rate at 50 ug/mL
# Type: functional
So basically, the class depends on measured inhibition at 50 µg/mL, and the ranges are low: < 70%; mid: ≥ 70% and < 80%; high: ≥ 80%

[ask] Form field 'band' for CO/N=C(/C(=O)OC)c1ccccc1CSc1cc(=O)c2ccccc2s1
[reply] mid

[ask] Form field 'band' for CO/C=C(/C(=O)OC)c1ccccc1CSc1nnc(CSc2nc3nc(C)cc(C)n3n2)o1
[reply] mid

[ask] Form field 'band' for CO/N=C(/C(=O)OC)c1ccccc1CSc1nc2ccccc2[nH]1
[reply] high

[ask] Form field 'band' for CO/C=C(/C(=O)OC)c1ccccc1CSc1nnc(N)s1
[reply] low

[ask] Form field 'band' for CO/C=C(/C(=O)OC)c1ccccc1CSc1nnc(-c2ccccc2)n1N
[reply] high

[ask] Form field 'band' for CO/C=C(/C(=O)OC)c1ccccc1CSc1nc2ccccc2s1
[reply] high

[ask] Form field 'band' for CC(C)(C)C(=O)C(Oc1ccc(Cl)cc1)n1cncn1 (configuration not stated) [TRIADIMEFON]
[reply] high

[ask] Form field 'band' for CO/C=C(/C(=O)OC)c1ccccc1CSc1nc2nc(C)cc(C)n2n1
[reply] low

[ask] Form field 'band' for CO/C=C(/C(=O)OC)c1ccccc1CSc1nn2c(C)nnc2s1
[reply] high

[ask] Form field 'band' for CO/C=C(/C(=O)OC)c1ccccc1CSc1nnc(CSc2nc3nc(C)cc(C)n3n2)s1
[reply] low

[ask] Form field 'band' for CO/C=C(/C(=O)OC)c1ccccc1CSc1nc(C)cc(C)n1
[reply] high

[ask] Form field 'band' for CO/N=C(/C(=O)OC)c1ccccc1CSc1nnc(CSc2nc3nc(C)cc(C)n3n2)o1
[reply] high

[ask] Form field 'band' for CO/C=C(/C(=O)OC)c1ccccc1CSc1nnc(CSc2nc3nc(C)cc(C)n3n2)n1-c1ccccc1
[reply] low

[ask] Form field 'band' for CO/C=C(/C(=O)OC)c1ccccc1CSc1cc(=O)c2ccccc2s1
[reply] low

[ask] Form field 'band' for CO/C=C(/C(=O)OC)c1ccccc1CSc1nnc(CSc2nc3nc(C)cc(C)n3n2)n1N
[reply] mid

[ask] Form field 'band' for CO/N=C(/C(=O)OC)c1ccccc1CSc1nc(C)cc(C)n1
[reply] mid

---

# Tested on: Dothiorella gregaria
# assay_protocol: Antifungal activity against Dothiorella gregaria assessed as inhibition rate at 50 ug/mL
# Assay type: functional
Please respond with reported inhibition at 50 µg/mL for every item in the list.
Respond with the bare value in %.

[ask] Quick one: inhibition at 50 µg/mL of CO/N=C(/C(=O)OC)c1ccccc1CSc1nc2ccccc2s1 ?
[reply] 84

[ask] Quick one: inhibition at 50 µg/mL of CO/N=C(/C(=O)OC)c1ccccc1CSc1nc(C)cc(C)n1 ?
[reply] 82

[ask] Quick one: inhibition at 50 µg/mL of CO/C=C(/C(=O)OC)c1ccccc1CSc1cc(=O)c2ccccc2s1 ?
[reply] 14

[ask] Quick one: inhibition at 50 µg/mL of CO/C=C(/C(=O)OC)c1ccccc1CSc1nc2ccccc2s1 ?
[reply] 94

[ask] Quick one: inhibition at 50 µg/mL of CO/N=C(/C(=O)OC)c1ccccc1CSc1nnc(CSc2nc3nc(C)cc(C)n3n2)o1 ?
[reply] 70

[ask] Quick one: inhibition at 50 µg/mL of CO/C=C(/C(=O)OC)c1ccccc1CSc1nnc(CSc2nc3nc(C)cc(C)n3n2)n1N ?
[reply] 78

[ask] Quick one: inhibition at 50 µg/mL of CO/C=C(/C(=O)OC)c1ccccc1CSc1nnc(CSc2nc3nc(C)cc(C)n3n2)s1 ?
[reply] 69

[ask] Quick one: inhibition at 50 µg/mL of CO/N=C(/C(=O)OC)c1ccccc1CSc1cc(=O)c2ccccc2s1 ?
[reply] 19

[ask] Quick one: inhibition at 50 µg/mL of CO/C=C(/C(=O)OC)c1ccccc1CSc1nn2c(C)nnc2s1 ?
[reply] 82

[ask] Quick one: inhibition at 50 µg/mL of CO/N=C(/C(=O)OC)c1ccccc1CSc1nc2nc(C)cc(C)n2n1 ?
[reply] 78

[ask] Quick one: inhibition at 50 µg/mL of CO/C=C(/C(=O)OC)c1ccccc1CSc1nc(C)cc(C)n1 ?
[reply] 91

[ask] Quick one: inhibition at 50 µg/mL of CO/N=C(/C(=O)OC)c1ccccc1CSc1nc2ccccc2[nH]1 ?
[reply] 87

[ask] Quick one: inhibition at 50 µg/mL of CO/C=C(/C(=O)OC)c1ccccc1CSc1nnc(-c2ccccc2)n1N ?
[reply] 76

[ask] Quick one: inhibition at 50 µg/mL of CO/N=C(/C(=O)OC)c1ccccc1COc1ccccc1C [KRESOXIM-METHYL] ?
[reply] 82

[ask] Quick one: inhibition at 50 µg/mL of CO/C=C(/C(=O)OC)c1ccccc1CSc1nnc(CSc2nc3nc(C)cc(C)n3n2)n1-c1ccccc1 ?
[reply] 11

[ask] Quick one: inhibition at 50 µg/mL of CO/N=C(/C(=O)OC)c1ccccc1CSc1nnc(CSc2nc3nc(C)cc(C)n3n2)s1 ?
[reply] 58

[ask] Quick one: inhibition at 50 µg/mL of CO/C=C(/C(=O)OC)c1ccccc1CSc1nc2ccccc2o1 ?
[reply] 46

Data provenance: ChEMBL document CHEMBL3044809
